Target: Atrial natriuretic peptide receptor 1 (Homo sapiens)
Experiment: Natriuretic polypeptide receptor (hNpr1) antagonism - Confirmation; also: nearly all actives have a fitted effect of over 70% in size
Settings: HEK293 hNpr1 cGMP GloSensor luminescence, ANP-stimulated; series mostly up to 57.6 µM
The campaign covered roughly 1,400 compounds. About 1,100 (79%) were called active. Inconclusive results (about 20%) are left out. Calls follow the shape of the full dose curve. The set was probably picked from earlier hits. These entries were drawn from the full list.
Give one outcome, nothing more. List: active, inactive

Query :: Dear all, I need the recorded test outcome for `OC1(Cc2cc(-c3ccccc3)no2)CCN(c2ncncn2)CC1` , thank you.
Result :: active

Query :: Dear all, I need the recorded test outcome for `COc1ccc(-c2noc(CC3CCN(C(=O)Cc4ccc(OC)c(OC)c4)CC3)n2)cc1` , thank you.
Result :: active

Query :: Dear all, I need the recorded test outcome for `CN1CCN(C(=O)C(C)(C)Oc2nn(Cc3cccc(Cl)c3)c3ccccc23)CC1` , thank you.
Result :: active

Query :: Dear all, I need the recorded test outcome for O=C(c1ccc(Cl)cc1)N1CCCC(n2cc(-c3nc(-c4ccccc4)no3)nn2)C1 (stereo not given) , thank you.
Result :: active

Query :: Dear all, I need the recorded test outcome for `CCN(CCCNC(=O)c1nnn2cc(-c3ccccc3)[nH]c(=O)c12)c1ccccc1` , thank you.
Result :: inactive

Query :: Dear all, I need the recorded test outcome for O=c1[nH]c(C2CCCN(Cc3ccccn3)C2)nn1-c1ccc(Cl)cc1 (stereo not given) , thank you.
Result :: active

Query :: Dear all, I need the recorded test outcome for `COc1ccc(-c2noc(CC3CCN(C(=O)CC4CCCCC4)CC3)n2)cc1` , thank you.
Result :: active

Query :: Dear all, I need the recorded test outcome for `O=C(c1ccccn1)N1CC(Oc2ccc(-c3noc(C4CC4)n3)cc2)C1` , thank you.
Result :: active

Query :: Dear all, I need the recorded test outcome for CN(Cc1csc(-c2ccccc2)n1)c1cc(C2CC(O)C2)nc(N)n1 (stereo not given) , thank you.
Result :: active

Query :: Dear all, I need the recorded test outcome for `COc1ccc(-c2noc(CC3CCN(C(=O)Cc4ccc(C)cc4)CC3)n2)cc1` , thank you.
Result :: active

Data credit: PubChem BioAssay AID1347044
